Every entry's value here was drawn from patent US11401271B2.

- Tested on: Spodoptera exigua
- assayOverview: whole plant or invertebrate
- Format: in vivo
- experimentalParameters: 500 ppm; 2nd-instar larvae, leaf immersion feeding
readoutName: Spodoptera exigua Mortality (%)
Record the value in %, omitting the unit from your answer.

Q) Any idea what Spodoptera exigua Mortality (%) was measured for COC(=O)CC1(C(=O)OC)Nc2c([S+]([O-])C(F)(F)F)c(C#N)nn2-c2c1ccc(Cl)c2C(F)(F)F (stereo not shown) ?
A) 100

Q) // next record COC(=O)C1(CC(C)=O)Nc2c([S+]([O-])C(F)(F)F)c(C#N)nn2-c2c(Cl)cc(C(F)(F)F)cc21 (stereo not shown)
A) 99

Q) // next record N#Cc1nn2c(c1[S+]([O-])C(F)(F)F)NC(CC(=O)C(F)(F)F)c1c(Cl)cncc1-2 (stereo not shown)
A) 95

Q) // next record N#Cc1nn2c(c1[S+]([O-])C(F)(F)F)NC(Cc1ccccc1)(C(=O)C(F)(F)F)c1c(Cl)cc(C(F)(F)F)cc1-2 (stereo not shown)
A) 90

Q) // next record N#Cc1nn2c(c1OC(F)(F)F)NC(C#N)c1c(Cl)cncc1-2 (stereo not shown)
A) 91

Q) // next record N#Cc1nn2c(c1OC(F)(F)F)NC(C(=O)C(F)(F)F)c1cc(C(F)(F)F)cc(Cl)c1-2 (stereo not shown)
A) 100

Q) // next record CCCCOC(=O)CC1(C(=O)OCCCC)Nc2c([S+]([O-])C(F)(F)F)c(C#N)nn2-c2c(Cl)cc(C(F)(F)F)cc21 (stereo not shown)
A) 85

----------
- Tested on: Solenopsis invicta
- assayOverview: whole plant or invertebrate
- Format: in vivo
- experimentalParameters: 100 ppm; 24 h; water test tube poison-feeding
- Excerpt: (4) Insecticidal Activity on Solenopsis invicta. As a hymenoptera pests and a social insect, Solenopsis invicta is one of the most destructive invasive organisms. Solenopsis invicta were used as test objects and tested by using a water test tube poison-feeding method. […]
readoutName: Solenopsis invicta Mortality (%) 24 h
Record the value in %, omitting the unit from your answer.

Q) Any idea what Solenopsis invicta Mortality (%) 24 h was measured for CC(=O)C1(CC(=O)C(F)(F)F)Nc2c([S+]([O-])C(F)(F)F)c(C#N)nn2-c2cncc(Cl)c21 (stereo not shown) [b-37] ?
A) 20

Q) // next record CCOC(=O)C1(CC(=O)OC)Nc2c([S+]([O-])C(F)(F)F)c(C#N)nn2-c2c(C(F)(F)F)ccc(Cl)c21 (stereo not shown) [e-6]
A) 34

Q) // next record CC(=O)CC1(C(C)=O)Nc2c([S+]([O-])C(F)(F)F)c(C#N)nn2-c2c(Cl)cc(C(F)(F)F)cc21 (stereo not drawn) [d-46]
A) 14

Q) // next record COC(=O)CC1(C(=O)OC)Nc2c([S+]([O-])C(F)(F)F)c(C#N)nn2-c2ccc(C(F)(F)F)c(Cl)c21 (stereo not shown) [e-7]
A) 29

Q) // next record COC(=O)C1(CC(=O)OCC(F)(F)F)Nc2c([S+]([O-])C(F)(F)F)c(C#N)nn2-c2c(Cl)cc(C(F)(F)F)cc21 (stereo not drawn) [d-27]
A) 14

Q) // next record COC(=O)C(C)C1Nc2c([S+]([O-])C(F)(F)F)c(C#N)nn2-c2cncc(Cl)c21 (stereo not shown) [b-66]
A) 28

Q) // next record N#CCC1(C(F)(F)F)Nc2c([S+]([O-])C(F)(F)F)c(C#N)nn2-c2c(Cl)cc(C(F)(F)F)cc21 (stereo not drawn) [d-70]
A) 20

----------
- Test system: Solenopsis invicta
- assayOverview: whole plant or invertebrate
- Format: in vivo
- experimentalParameters: 100 ppm; 72 h; water test tube poison-feeding
readoutName: Solenopsis invicta Mortality (%) 72 h
Record the value in %, omitting the unit from your answer.

Q) Any idea what Solenopsis invicta Mortality (%) 72 h was measured for CCOC(=O)C1(CC(=O)OC)Nc2c([S+]([O-])C(F)(F)F)c(C#N)nn2-c2c(C(F)(F)F)ccc(Cl)c21 (stereo not shown) ?
A) 100

Q) // next record N#Cc1nn2c(c1[S+]([O-])C(F)(F)F)NC(C(=O)C(F)(F)F)c1cc(C(F)(F)F)cc(Cl)c1-2 (stereo not shown)
A) 100

Q) // next record COC(=O)CC1(C(=O)OC)Nc2c([S+]([O-])C(F)(F)F)c(C#N)nn2-c2cc(C(F)(F)F)cc(Cl)c21 (racemic)
A) 100

Q) // next record CC(C)C1Nc2c(OC(F)(F)F)c(C#N)nn2-c2c(Cl)cc(C(F)(F)F)cc21 (stereo not shown)
A) 91

Q) // next record COC(=O)CC1(C(=O)OC)Nc2c([S+]([O-])C(F)(F)F)c(C#N)nn2-c2cc(C(F)(F)F)c(Cl)cc21 (stereo not shown)
A) 90

Q) // next record COC(=O)C1(CC(=O)OCC(F)F)Nc2c([S+]([O-])C(F)(F)F)c(C#N)nn2-c2cc(C(F)(F)F)cc(Cl)c21 (stereo not shown)
A) 100

Q) // next record COC(=O)CC1(C(=O)OC)Nc2c(C#N)c(C(F)(F)F)nn2-c2cc(C(F)(F)F)cc(Cl)c21 (stereo not shown)
A) 93

----------
- System: Spodoptera exigua
- assayOverview: whole plant or invertebrate
- Format: in vivo
- experimentalParameters: 500 ppm; 2nd-instar larvae, leaf immersion feeding
- From the text: (2) Insecticidal Activity on 2nd-Instar Larvae of Spodoptera exigua. Spodoptera exigua is a lepidoptera pest with a chewing mouthpart and is a common vegetable pest. The 2nd-instar larvae of Spodoptera exigua were used as test objects and tested by using a leaf immersion feeding method. […]
Provide the recorded Spodoptera exigua Mortality (%) for the entries that follow.
Record the value in %, omitting the unit from your answer.

Q) Any idea what Spodoptera exigua Mortality (%) was measured for COC(=O)CC1(C(=O)OC)Nc2c([S+]([O-])C(F)(F)F)c(CN)nn2-c2c(Cl)cc(C(F)(F)F)cc21 (stereo not drawn) [d-9] ?
A) 79

Q) // next record COC(=O)CC1Nc2c([S+]([O-])C(F)(F)F)c(C(F)(F)F)nn2-c2c(Cl)cc(C(F)(F)F)cc21 (stereo not drawn) [d-98]
A) 100

Q) // next record COC(=O)CC1(C(=O)OC)Nc2c([S+]([O-])C(F)(F)F)c(C#N)nn2-c2cc(C(F)(F)F)c(Cl)cc21 (stereo not drawn) [e-19]
A) 100

Q) // next record COC(=O)CC1(C(=O)OC)Nc2c([S+]([O-])C(F)(F)F)c(C(C)=O)nn2-c2c(Cl)cc(C(F)(F)F)cc21 (stereo not drawn) [d-8]
A) 82

Q) // next record CNC(=O)CC1Nc2c(OC(F)(F)F)c(C#N)nn2-c2c(Cl)cc(C(F)(F)F)cc21 (stereo not drawn) [d-133]
A) 86

Q) // next record CC(C)C1Nc2c(OC(F)(F)F)c(C#N)nn2-c2c(Cl)cc(C(F)(F)F)cc21 (stereo not drawn) [d-141]
A) 95

Q) // next record CC(=O)CC1(C(C)=O)Nc2c([S+]([O-])C(F)(F)F)c(C#N)nn2-c2c(Cl)cc(C(F)(F)F)cc21 (stereo not drawn) [d-46]
A) 90

Q) // next record O=C(CC1Nc2c([S+]([O-])C(F)(F)F)c(C(F)(F)F)nn2-c2c(Cl)cc(C(F)(F)F)cc21)C(F)(F)F (stereo not drawn) [d-103]
A) 98

Q) // next record COC(=O)C1(CC(F)(F)F)Nc2c([S+]([O-])C(F)(F)F)c(C#N)nn2-c2c(Cl)cc(C(F)(F)F)cc21 (stereo not drawn) [d-35]
A) 89

Q) // next record COC(=O)C1(CC(=O)OCC(F)F)Nc2c([S+]([O-])C(F)(F)F)c(C#N)nn2-c2cc(C(F)(F)F)cc(Cl)c21 (stereo not drawn) [c-20]
A) 100

Q) // next record CCOC(=O)C1(CC(=O)OC(C(F)(F)F)C(F)(F)F)Nc2c([S+]([O-])C(F)(F)F)c(C#N)nn2-c2c(Cl)cc(C(F)(F)F)cc21 (stereo not drawn) [d-42]
A) 100

Q) // next record CC(C)C1Nc2c(OC(F)(F)F)c(C#N)nn2-c2cncc(Cl)c21 (stereo not drawn) [b-131]
A) 95

Q) // next record COC(=O)C1(CC(=O)OCC(F)(F)F)Nc2c([S+]([O-])C(F)(F)F)c(C#N)nn2-c2c(C(F)(F)F)ccc(Cl)c21 (stereo not drawn) [e-3]
A) 95

Q) // next record COC(=O)C1(CC#N)Nc2c([S+]([O-])C(F)(F)F)c(C#N)nn2-c2cncc(Cl)c21 (stereo not drawn) [b-2]
A) 95

Q) // next record N#Cc1nn2c(c1[S+]([O-])C(F)(F)F)NC(CC(F)(F)F)c1cc(C(F)(F)F)cc(Cl)c1-2 (stereo not drawn) [d-85]
A) 100
